Consider the following molecules; for each one, report its number of serum-induced phosphopeptides changed.
system: serum-induced phosphopeptides in Capan-1 cells; assay: SILAC phosphoproteomics of Capan-1 cells under PI3K inhibition; type: cell-based, human; settings: Capan-1, 10 min
One number for each entry.

# example entries with known answers
Cc1cc(C(C)Nc2ccccc2)c2nc(N3CCOCC3)cc(=O)n2c1 (stereo not shown) : 436
O=C1NC(=O)/C(=C/c2ccc(-c3ccc(F)cc3O)o2)S1 : 504
Cc1nc(NC(=O)N2CCC[C@H]2C(N)=O)sc1-c1csc(C(C)(C)C)n1 : 449

Consider the record given below.
Problem: Answer with the recorded number of serum-induced phosphopeptides changed of O=c1cc(N2CCOCC2)oc2c(-c3ccccc3)cccc12 only.
Solution: 427

Source listed as patent US11351156B2.
